These measurements were taken from PubChem BioAssay (NCI).

- Tested on: HS 578T breast
- measurementProtocol: NCI tumour cell line growth inhibition, 48 h
So I've got a bunch of molecules here, and I need their TGI values.

Recorded TGI of "CCC(=O)c1ccc2[nH]c3c(C)c4c(=O)cc(C)[nH]c4c(C)c3c2c1" , please. > 100 µM

And what about the molecule "COCCCNC(=O)C1=C(C)NC(C)=C(C(=O)NCCCOC)C1" ? > 100 µM

And what about the molecule "CC(=O)Nc1cc2c3c(c1)CCCN3CCC2" ? > 100 µM

And what about the molecule "CC(=O)CSc1c(-c2ccccc2)c(=O)n(-c2ccccc2)c(=S)n1-c1ccccc1" ? > 100 µM

And what about the molecule "CS(=O)(=O)Nc1ccc(-c2cc(-c3ccccc3)cc(C(N)=O)c2N)cc1" ? > 25 µM

And what about the molecule "CC(=O)Nc1ccc2[nH]c(-c3cccc(Cl)c3)cc(=O)c2c1" ? > 100 µM

====

- Test system: HCT-116 colon
- measurementProtocol: NCI tumour cell line growth inhibition, 48 h
So I've got a bunch of compounds here, and I need their TGI values.

Recorded TGI of "CC(=O)c1cc(C(=O)c2ccc3c(c2)Sc2ccccc2N3)c2c(C)cc(C)cn12" , please. > 100 µM

And what about the compound "CCC(=O)c1ccc2[nH]c3c(C)c4c(=O)cc(C)[nH]c4c(C)c3c2c1" ? > 100 µM

And what about the compound CC(SC(=S)N1CCOCC1)C(=O)Nc1nnc(-c2ccccc2)o1 (stereo not drawn) ? > 100 µM

And what about the compound "NCCN1C(=O)CN=C(c2ccc(Cl)cc2)c2cc(Cl)ccc21" ? 30.1 µM

And what about the compound O=c1ccn(C2OC(CO)C(O)C2[Se]c2ccccc2)c(=O)[nH]1 (stereo not drawn) ? > 100 µM

And what about the compound "Nc1nc2c(s1)CCc1c-2c(Br)n(Cc2ccccc2)c1Br" ? 6.43 µM

And what about the compound CC(/C(=N\Nc1ccccc1)c1ccc(O)cc1)C1C(=O)Oc2ccccc21 (stereo not drawn) ? > 100 µM

And what about the compound "CN(C)CCNC(=O)C(C)(C)Oc1ccc(C(=O)c2ccc(Cl)cc2)cc1Cl" ? 20 µM

And what about the compound COc1ccc(C(SCC(N)C(=O)O)(c2ccccc2)c2ccccc2)cc1 (stereo not drawn) ? 25.8 µM

And what about the compound CNC(=O)SCC(N)C(=O)O (stereo not drawn) ? > 100 µM

And what about the compound "NC(=O)c1ccc(NN=O)nc1" ? > 100 µM

And what about the compound "Cc1ccc(N=Nc2ccc(O)c(CN(C)C)c2)cc1" ? 51.8 µM

And what about the compound "Cc1nc(N/N=C/c2ccccc2Cl)[nH]c(=O)c1CCO" ? > 100 µM

And what about the compound "O=C(O)CCc1ccc2c(c1)C(=O)CC2" ? > 100 µM

And what about the compound "Nc1nc(OCc2cc(Br)cs2)c2[nH]cnc2n1" ? > 100 µM

And what about the compound CCC[C@H](NS(=O)c1ccc(C)cc1)C(C(=O)OCC)=C(c1ccccc1)c1ccccc1 (stereo partly drawn) ? 27.4 µM

And what about the compound "COCCCNC(=O)C1=C(C)NC(C)=C(C(=O)NCCCOC)C1" ? > 100 µM

And what about the compound O=P1(Oc2ccccc2)N(CCCl)CCN1c1ccccc1 (stereo not drawn) ? > 100 µM

And what about the compound C/C=C/C1=CC(=O)C(O)C1O (stereo not drawn) ? 96 µM

And what about the compound CCOC(=O)C(C)NC(=O)C(C)NC(=O)C(C)NC(=O)C(C)NC(=O)C(C)NC(=O)OCc1ccccc1 (stereo not drawn) ? > 100 µM

And what about the compound "C[C@H](Nc1ncnc2nc[nH]c12)c1cc2ccc(F)cc2nc1-c1ccccn1" ? > 100 µM

And what about the compound "O=C(N=Nc1cccc(Cl)c1)NNc1cccc(Cl)c1" ? 21.2 µM

And what about the compound "CCOC(=O)c1c(C)n2c(=O)cc(C)c3c(O)c(O)cc1c32" ? 35.5 µM

And what about the compound "Oc1ccc(O)c(-c2cn3ccsc3n2)c1" ? 18.3 µM

And what about the compound "COc1cc2nc(SCC(=O)Nc3cc(OC)c(OC)c(OC)c3)n(Cc3ccccc3)c(=O)c2cc1OC" ? 78.9 µM

And what about the compound Clc1cc(Cl)cc(C2ON=C(c3ccccc3)N2C23CC4CC(CC(C4)C2)C3)c1 (stereo not drawn) ? > 10 µM

And what about the compound COC(=O)C(=O)C(C(=O)C(=O)Nc1nc2ccc(C)cc2s1)c1nc2ccc([N+](=O)[O-])cc2[nH]c1=O (stereo not drawn) ? > 100 µM

And what about the compound "O=c1[nH]nc(Cc2ccccc2)n1/N=C\c1ccccc1" ? > 100 µM

And what about the compound CC1=C/C(=N\O)C(C(O)(C(F)(F)F)C(F)(F)F)C(C)(C)C1 (stereo not drawn) ? > 10 µM

And what about the compound "CS(=O)(=O)Nc1ccc(-c2cc(-c3ccccc3)cc(C(N)=O)c2N)cc1" ? > 25 µM

And what about the compound "CCc1c(Cc2[nH]c(Cc3[nH]c(C=O)c(C)c3CC)c(CC)c2CC)[nH]c(C=O)c1C" ? > 100 µM

And what about the compound O=C(c1ccccc1)[C@H]1Nc2ccc(Cl)cc2C2c3ccccc3CC21 (stereo partly drawn) ? > 100 µM

And what about the compound Cc1ccc(NC(=O)C(=O)C(C#N)c2nc(-c3ccc(-c4ccccc4)cc3)cs2)c(C)c1 (stereo not drawn) ? > 100 µM
